Provide the reported abundance fitness of each item.
B1: Glucocorticoid receptor, residues 419 to 494; numbered along this chain, P04150 (parent)
chain: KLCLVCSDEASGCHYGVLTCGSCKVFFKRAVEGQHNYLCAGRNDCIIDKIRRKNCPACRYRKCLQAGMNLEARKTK

Variants of: B1
METHOD_DESCRIPTION: abundance fitness (aPCA) (normalised: wild type 0, dead -1); higher = more abundant; growth selection in yeast, the domain comes from the species named
CONDITION_DESCRIPTION: Homo sapiens
Kindly provide the number alone.

Look up abundance fitness: `K1Q` -0.293

Which abundance fitness value is on record for `E32T` ? -0.007

Which abundance fitness value belongs to `L2C` ? -0.068

Quick one: abundance fitness for `C55V` ? -0.739

For `C55P` , what is its reported abundance fitness? -0.757

Look up abundance fitness: `L70F` -0.08

Item under review: `K53L` . Reported abundance fitness? -0.017

Would you mind telling me what abundance fitness value was observed for `E32G` ? -0.04

Suppose we examine the variant `K62N` ; what abundance fitness value has been reported? -0.031

Sample `C45E` — what was its abundance fitness? -0.762

Consider the variant `S22P` and give its measured abundance fitness. -0.06

# query: abundance fitness of entry `K28L` -0.022

Consider the variant shown here: `T19N` What is its recorded abundance fitness? -0.557

I have this variant here, `R73L` , and I need its recorded abundance fitness. -0.04

Given the variant `V25A` , what is its reported abundance fitness? 0.045

Please look up its abundance fitness: `C63K` -0.779
